Reference source for all entries: patent US4309425A

# System: Puccinia graminis var. tritici
# protocol-notes: whole plant or invertebrate
# Type: in vivo
# particulars: 192 h, read-out: % control wheat rust in a photostability test
Catalogue of pest or weed control at 20 ppm values
State the answer as a number, implicitly in %.

[[record]]
given_smiles = "CN(SN(c1cc(C(F)(F)F)ccc1Cl)c1c([N+](=O)[O-])cc([N+](=O)[O-])cc1C(F)(F)F)S(=O)(=O)c1ccc2ccccc2c1"
tested_system = "Puccinia graminis var. tritici"
display_unit = "%"
recorded_measurement = 100

[[record]]
given_smiles = "Cc1ccc(S(=O)(=O)N(SN(c2cc(C(F)(F)F)ccc2Cl)c2c([N+](=O)[O-])cc([N+](=O)[O-])cc2C(F)(F)F)C(C)C)cc1"
tested_system = "Puccinia graminis var. tritici"
display_unit = "%"
recorded_measurement = 80

[[record]]
given_smiles = "CCCCN(SN(c1cc(C(F)(F)F)ccc1Cl)c1c([N+](=O)[O-])cc([N+](=O)[O-])cc1C(F)(F)F)S(=O)(=O)c1ccccc1C"
tested_system = "Puccinia graminis var. tritici"
display_unit = "%"
recorded_measurement = 98

[[record]]
given_smiles = "O=C1CCCN1SN(c1cc(C(F)(F)F)ccc1Cl)c1c([N+](=O)[O-])cc([N+](=O)[O-])cc1C(F)(F)F"
tested_system = "Puccinia graminis var. tritici"
display_unit = "%"
recorded_measurement = 100

[[record]]
given_smiles = "Cc1ccc(S(=O)(=O)N(C)SN(c2cc(C(F)(F)F)ccc2Cl)c2c([N+](=O)[O-])cc([N+](=O)[O-])cc2C(F)(F)F)cc1"
tested_system = "Puccinia graminis var. tritici"
display_unit = "%"
recorded_measurement = 40

[[record]]
given_smiles = "CCCCN(SN(c1cc(C(F)(F)F)ccc1Cl)c1c([N+](=O)[O-])cc([N+](=O)[O-])cc1C(F)(F)F)S(=O)(=O)c1ccc(C)cc1"
tested_system = "Puccinia graminis var. tritici"
display_unit = "%"
recorded_measurement = 100


Value lookup for pest or weed control at 20 ppm; key = CCCCN(SN(c1cc(C(F)(F)F)ccc1Cl)c1c([N+](=O)[O-])cc([N+](=O)[O-])cc1C(F)(F)F)S(=O)(=O)c1ccccc1 90

###

# Test system: Puccinia graminis var. tritici
# protocol-notes: whole plant or invertebrate
# Type: in vivo
# particulars: 192 h, read-out: % control wheat rust in preventive test
recorded-metric: pest or weed control at 20 ppm (%)
Provide the reading as a plain figure in %.

Below, each entry is followed by its recorded pest or weed control at 20 ppm result.
[[record]]
given_smiles = "Cc1ccc(S(=O)(=O)N(C)SN(c2cc(C(F)(F)F)ccc2Cl)c2c([N+](=O)[O-])cc([N+](=O)[O-])cc2C(F)(F)F)cc1"
display_unit = "%"
recorded_measurement = 80

[[record]]
given_smiles = "CCCCN(SN(c1cc(C(F)(F)F)ccc1Cl)c1c([N+](=O)[O-])cc([N+](=O)[O-])cc1C(F)(F)F)S(=O)(=O)c1ccc(C)cc1"
display_unit = "%"
recorded_measurement = 100


Could you tell me which pest or weed control at 20 ppm is on file for CCCCN(SN(c1cc(C(F)(F)F)ccc1Cl)c1c([N+](=O)[O-])cc([N+](=O)[O-])cc1C(F)(F)F)S(=O)(=O)c1ccccc1C ? 100
